Please go through the items and note down their abundance fitness.
B1: Cyclin-F, residues 28 to 80; numbered along this chain, P41002 (parent)
chain: RNLTILSLPEDVLFHILKWLSVEDILAVRAVHSQLKDLVDNHASVWACASFQE

- Variants of: B1
- Procedure summary: abundance fitness (aPCA) (normalised: wild type 0, dead -1); higher = more abundant; growth selection in yeast, the domain comes from the species named
- Applied conditions: Homo sapiens
One number for each entry.

Answered examples (5):
[[record]]
mutant_label = "Q34E"
readout_kind = "abundance fitness"
recorded_number = -0.455

[[record]]
mutant_label = "C48Q"
readout_kind = "abundance fitness"
recorded_number = -0.246

[[record]]
mutant_label = "S7Q"
readout_kind = "abundance fitness"
recorded_number = -0.232

[[record]]
mutant_label = "S21A"
readout_kind = "abundance fitness"
recorded_number = -0.113

[[record]]
mutant_label = "D24E"
readout_kind = "abundance fitness"
recorded_number = -0.388


List reported abundance fitness for each of these variants:
1. F51Y
2. Q52H
3. N41A
4. D37M
5. L20D

1: -0.215; 2: -0.108; 3: -0.071; 4: 0.158; 5: -0.675

# batch: return abundance fitness for each of the 3 variants below
1. L26V
2. C48K
3. A30V

[-0.452, -0.307, -0.125]
